conditions: 299.9 K; 101.33 kPa; Liquid; Pulse-echo method
QUANTITY KIND: speed of sound (m/s)
Numbers only here, please. The scale is m/s.

Report speed of sound for C[NH2+]CCO.O=C[O-] [2-hydroxy-N-methylethanaminium formate] please.
1811.9

Report speed of sound for CCC(=O)[O-].C[NH2+]CCO [2-hydroxy-N-methylethanaminium propionate] please.
1684.8

Report speed of sound for CC(C)C(=O)[O-].C[NH2+]CCO [2-hydroxy-N-methylethanaminium isobutyrate] please.
1606.3

Report speed of sound for CCCC(=O)[O-].C[NH2+]CCO [N-methyl-2-hydroxyethylammonium butanoate] please.
1609

Report speed of sound for CCCCC(=O)[O-].C[NH2+]CCO [2-hydroxy-N-methylethanaminium pentanoate] please.
1543.3
